Where do the numbers come from? From ChEMBL document CHEMBL2413046.

Assay: Inhibition of rabbit liver guanase assessed as inhibition of guanine hydrolysis by Lineweaver-Burk plot method
Set-up: species or system Oryctolagus cuniculus
Recorded Ki by entry
Just the number in µM, nothing appended.

Study these solved cases before continuing.
# Compound, Ki [µM]
records = [
    ("COc1ccc(Cn2cnc3c2C(=O)NCC(OC)N3Cc2ccccc2)cc1 (stereo not drawn)", 26.5),
    ("COc1ccc(Cn2cnc3c2NC(OC)CNC3=O)cc1 (stereo not drawn)", 21),
    ("CCOC1CNC(=O)c2ncn(Cc3ccc(OC)cc3)c2N1 (stereo not drawn)", 33.4),
    ("CCOC1CNC(=O)c2c(ncn2Cc2ccc(OC)cc2)N1Cc1ccccc1 (stereo not drawn)", 43.8),
    ("COC1CNC(=O)c2nc[nH]c2N1Cc1ccccc1 (stereo not drawn)", 8.8),
    ("COC1CNC(=O)c2ncn(Cc3ccc(F)cc3)c2N1 (stereo not drawn)", 39.7),
    ("O=C1NC(O)CNc2nc[nH]c21 (stereo not drawn) [AZEPINOMYCIN]", 2.5),
]

Query COc1ccc(Cn2cnc3c2C(=O)NCC(OC)N3)cc1 (stereo not drawn) yields Ki of 47.5

----------
Ki values by entry
Assay: Competitive reversible inhibition of rabbit liver guanase assessed as inhibition of guanine hydrolysis by Lineweaver-Burk plot method
Parameters: species or system Oryctolagus cuniculus

Ki for CCCCOC1CNC(=O)c2ncn(Cc3ccccc3)c2N1 (stereo not drawn) is 54 µM

Recorded result, CCOC1CNC(=O)c2ncn(Cc3ccccc3)c2N1 (stereo not drawn) , Ki: 47 µM

Sure, the documented Ki for COC1CNC(=O)c2ncn(Cc3ccccc3)c2N1 (stereo not drawn) is 40 µM
